# targetEntity: c-Src SH2;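 note: peptide library displayed on the E. coli surface as eCPX fusions, selected cells deep-sequenced, score is each peptide's frequency after selection divided by its frequency in the input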
# assayInfo: SH2 binding enrichment of the phosphorylated peptide, bacterial display (enrichment ratio); higher = better substrate or ligand; peptides without Tyr show the background
Short version: SH2 binding enrichment at least 0.6 is Yes, less is No.

Qu. Entry DENWFYTRAAF [RPS19_Y54_S59F] : is its SH2 binding enrichment no less than 0.6?
Ans. No

Qu. Entry HPFHVYSQPGM [BAG3_Y114_P115S] : is its SH2 binding enrichment no less than 0.6?
Ans. Yes

Qu. Entry VEKEKYVSFIS [JMJD1C_Y596_M591V_YF] : is its SH2 binding enrichment no less than 0.6?
Ans. Yes

Qu. Entry QFFQGYFNNNF [ZNF236_Y644_S643G] : is its SH2 binding enrichment no less than 0.6?
Ans. Yes

Qu. Entry QAEEWYFGKMG [YES1_Y159] : is its SH2 binding enrichment no less than 0.6?
Ans. No

Qu. Entry PLDGEYVTLQI [TP53_Y327_F328V] : is its SH2 binding enrichment no less than 0.6?
Ans. No

Qu. Entry VMVCAYLLHRG [PTEN_Y138_I135V] : is its SH2 binding enrichment no less than 0.6?
Ans. Yes

Qu. Entry RLNCIYFKDQT [RS1_Y165_W163C_YF] : is its SH2 binding enrichment no less than 0.6?
Ans. Yes

Qu. Entry MSPPGYKLVNG [GJA1_Y286_T290N] : is its SH2 binding enrichment no less than 0.6?
Ans. No

* * *

# targetEntity: EPHB2 (UniProt P29323)
# Sequence (P29323 whole entry, looked up): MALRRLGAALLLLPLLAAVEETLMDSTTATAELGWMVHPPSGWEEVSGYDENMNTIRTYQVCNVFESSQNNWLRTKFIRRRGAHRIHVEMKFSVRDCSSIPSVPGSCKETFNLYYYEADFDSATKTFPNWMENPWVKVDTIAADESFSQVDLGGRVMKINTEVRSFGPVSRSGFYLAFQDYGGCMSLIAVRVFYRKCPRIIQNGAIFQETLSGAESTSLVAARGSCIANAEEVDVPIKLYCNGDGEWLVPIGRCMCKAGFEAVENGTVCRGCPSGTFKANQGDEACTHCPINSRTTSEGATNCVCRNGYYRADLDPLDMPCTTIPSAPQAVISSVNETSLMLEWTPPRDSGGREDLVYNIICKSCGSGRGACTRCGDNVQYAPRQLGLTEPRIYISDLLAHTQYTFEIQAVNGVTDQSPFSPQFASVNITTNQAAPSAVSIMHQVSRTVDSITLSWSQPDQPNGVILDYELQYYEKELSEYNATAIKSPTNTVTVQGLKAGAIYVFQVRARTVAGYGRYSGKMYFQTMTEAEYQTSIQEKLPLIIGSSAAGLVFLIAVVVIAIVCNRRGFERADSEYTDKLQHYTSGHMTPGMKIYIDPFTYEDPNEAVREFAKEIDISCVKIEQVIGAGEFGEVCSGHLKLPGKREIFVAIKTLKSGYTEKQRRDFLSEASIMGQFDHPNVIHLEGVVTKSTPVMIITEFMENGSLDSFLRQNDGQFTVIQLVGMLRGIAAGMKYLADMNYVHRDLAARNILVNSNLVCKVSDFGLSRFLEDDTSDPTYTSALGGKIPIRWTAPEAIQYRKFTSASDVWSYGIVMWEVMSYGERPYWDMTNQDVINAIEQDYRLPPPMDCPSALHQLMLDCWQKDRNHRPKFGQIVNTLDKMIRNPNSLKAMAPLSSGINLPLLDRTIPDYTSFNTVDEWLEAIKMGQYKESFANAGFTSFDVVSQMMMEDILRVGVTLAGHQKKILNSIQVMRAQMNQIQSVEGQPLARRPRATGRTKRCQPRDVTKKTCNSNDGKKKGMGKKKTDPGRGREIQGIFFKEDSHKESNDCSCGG
# assayInfo: phosphorylation enrichment, bacterial display (enrichment ratio); higher = better substrate or ligand; peptides without Tyr show the background
Short version: phosphorylation enrichment at least 0.5 is YES, less is NO.

These solved cases illustrate the format of a correct answer.
> print(dat)
                        itemsequence  classassignment
1      EAAFVYVISSA [WNT4_Y113_A114V]              YES
2  RPGGRYPVARR [SHANK3_Y1569_S1566G]              YES
3      VMVCAYLLHRG [PTEN_Y138_I135V]              YES
4          KDFTIYNPNLL [VANGL1_Y290]               NO
5      KQMEQYMSFHK [HCN1_Y417_V414M]               NO

# evaluate next
Qu. Entry HRFAAYFQQGD [GPI_Y351] : is its phosphorylation enrichment no less than 0.5?
Ans. YES

* * *

# targetEntity: MERTK (UniProt Q12866)
# Sequence (Q12866 whole entry, looked up): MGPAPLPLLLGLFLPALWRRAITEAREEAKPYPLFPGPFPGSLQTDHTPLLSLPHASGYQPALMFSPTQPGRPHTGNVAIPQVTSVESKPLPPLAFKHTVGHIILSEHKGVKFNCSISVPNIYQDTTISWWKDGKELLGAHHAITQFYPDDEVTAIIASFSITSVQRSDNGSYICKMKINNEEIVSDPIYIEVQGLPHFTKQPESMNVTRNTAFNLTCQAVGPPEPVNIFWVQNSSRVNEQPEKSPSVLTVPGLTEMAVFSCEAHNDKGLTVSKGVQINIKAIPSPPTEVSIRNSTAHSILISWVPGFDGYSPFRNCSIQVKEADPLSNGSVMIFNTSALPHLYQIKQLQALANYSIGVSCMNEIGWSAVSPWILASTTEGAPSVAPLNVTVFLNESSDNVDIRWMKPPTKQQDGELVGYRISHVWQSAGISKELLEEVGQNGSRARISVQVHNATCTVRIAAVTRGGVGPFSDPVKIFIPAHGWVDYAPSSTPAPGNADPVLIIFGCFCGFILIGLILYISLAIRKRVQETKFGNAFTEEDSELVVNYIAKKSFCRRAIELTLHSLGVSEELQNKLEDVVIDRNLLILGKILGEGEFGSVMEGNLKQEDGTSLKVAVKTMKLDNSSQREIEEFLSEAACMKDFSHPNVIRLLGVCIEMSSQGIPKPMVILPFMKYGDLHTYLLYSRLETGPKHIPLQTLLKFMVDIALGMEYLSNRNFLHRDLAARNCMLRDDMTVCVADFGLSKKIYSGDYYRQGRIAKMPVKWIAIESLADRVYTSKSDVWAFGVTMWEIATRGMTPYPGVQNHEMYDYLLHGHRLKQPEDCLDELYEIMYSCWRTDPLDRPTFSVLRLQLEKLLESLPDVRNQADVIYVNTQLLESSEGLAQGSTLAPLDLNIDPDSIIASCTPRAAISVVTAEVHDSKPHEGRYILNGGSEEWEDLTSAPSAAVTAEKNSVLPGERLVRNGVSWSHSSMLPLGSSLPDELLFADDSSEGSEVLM
# assayInfo: phosphorylation enrichment, bacterial display (enrichment ratio); higher = better substrate or ligand; peptides without Tyr show the background
Short version: phosphorylation enrichment at least 0.5 is 1 (yes), less is 0 (no).

> print(dat)
                itemsequence  classassignment
1  IQRSLYDRPAS [PDGFRA_Y762]          1 (yes)

Qu. Entry IEDPYYGNDSD [ACP1_Y133] : is its phosphorylation enrichment no less than 0.5?
Ans. 0 (no)

Qu. Entry RRIYSYRGHLW [VHL_Y112_H110Y] : is its phosphorylation enrichment no less than 0.5?
Ans. 1 (yes)

Qu. Entry RRKRAYVEIEF [MAK16_Y282_Q277R_YF] : is its phosphorylation enrichment no less than 0.5?
Ans. 1 (yes)

Qu. Entry KLIETCFSKNY [PLP1_Y50_Y50C] : is its phosphorylation enrichment no less than 0.5?
Ans. 0 (no)

Qu. Entry KLQKYYRKNPD [EHHADH_Y683_Q685K] : is its phosphorylation enrichment no less than 0.5?
Ans. 0 (no)

Qu. Entry TRSYDYMEGGD [FGF7_Y58] : is its phosphorylation enrichment no less than 0.5?
Ans. 0 (no)

Qu. Entry GHRPVYSEDEQ [CHST6_Y362_Y358H] : is its phosphorylation enrichment no less than 0.5?
Ans. 0 (no)

Qu. Entry TKDTFYKQPMF [GBA_Y451] : is its phosphorylation enrichment no less than 0.5?
Ans. 0 (no)

Qu. Entry KLQKKYGPIYS [CYP17A1_Y60] : is its phosphorylation enrichment no less than 0.5?
Ans. 0 (no)

All values here come from the supplement of paper PMC10065799.
